Test: Cytotoxicity against mouse L929 cells assessed as reduction of cell viability
Format: toxicity, cell-based
Listing of entries alongside the reported CC50.

Sample answers from the record:
INSERT INTO measurements (molecule, experimental_result) VALUES
  ('CCCC1CCC(OC(=O)N[C@@H](CC(C)C)C(=O)N[C@H](C=O)C[C@@H]2CCNC2=O)CC1 (some centres undefined)', '> 100 µM'),
  ('CC(C)C[C@H](NC(=O)OCC1CCC(F)(F)CC1)C(=O)N[C@@H](C[C@@H]1CCNC1=O)C(O)S(=O)(=O)O (some centres undefined)', '> 100 µM'),
  ('CC(C)C[C@H](NC(=O)OCC1CCC(F)(F)CC1)C(=O)N[C@H](C=O)C[C@@H]1CCNC1=O', '> 100 µM'),
  ('CCCCC1CCC(OC(=O)N[C@@H](CC(C)C)C(=O)N[C@@H](C[C@@H]2CCNC2=O)C(O)S(=O)(=O)O)CC1 (some centres undefined)', '59.1 µM'),
  ('O=C[C@H](C[C@@H]1CCNC1=O)NC(=O)[C@H](CC1CCCCC1)NC(=O)c1cc2ccccc2[nH]1', '> 100 µM'),
  ('O=C[C@H](C[C@@H]1CCNC1=O)NC(=O)[C@H](Cc1cccc(F)c1)NC(=O)c1cc2ccccc2[nH]1', '> 100 µM');

CCCCC1CCC(OC(=O)N[C@@H](CC(C)C)C(=O)N[C@H](C=O)C[C@@H]2CCNC2=O)CC1 (some centres undefined) yielded CC50 of 63.3 µM

CCCC1CCC(OC(=O)N[C@@H](CC(C)C)C(=O)N[C@@H](C[C@@H]2CCNC2=O)C(O)S(=O)(=O)O)CC1 (some centres undefined) yielded CC50 of > 100 µM

CC(C)C[C@H](NC(=O)OC1CCCCC1)C(=O)N[C@@H](C[C@@H]1CCNC1=O)C(O)S(=O)(=O)O (some centres undefined) yielded CC50 of > 100 µM

CC(C)C[C@H](NC(=O)OC1CCC(F)(F)CC1)C(=O)N[C@@H](C[C@@H]1CCNC1=O)C(O)S(=O)(=O)O (some centres undefined) yielded CC50 of > 100 µM
